Source: PubChem BioAssay AID1259426

Experimental System: HEK293 Galpha15/GCaMP6s without NPYLR7, calcium fluorescence
Assay Summary: nonspecific activation in parental Galpha15/GCaMP6s cells – cell-based, HEK293 lacking NPYLR7, counter-screen for mosquito NPYLR7 agonist project, dose response (AID 1259426);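 further: potency for a rise in fluorescence over baseline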
Activity calls are given as the source filed them.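 How the source made its calls: active means EC50 under a set limit in control cells lacking the mosquito receptor, marking a fluorescence artifact; inactive means the rest.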
The reply should name one outcome from active, inactive

# example entries with known answers
Compound: CC1(C)CC(c2[nH]cnc2-c2ccccc2)CCO1 (stereo unspecified)
Experimental System: HEK293 Galpha15/GCaMP6s without NPYLR7, calcium fluorescence
Cat: inactive
//
Compound: COc1ccc(-c2cccc(-c3ccc(NC(=O)c4oc5ccccc5c4C)cc3)n2)cc1
Experimental System: HEK293 Galpha15/GCaMP6s without NPYLR7, calcium fluorescence
Cat: inactive
//
Compound: CN1CCN(Cc2c(O)ccc3c2O/C(=C\c2cc4cc(Br)ccc4o2)C3=O)CC1
Experimental System: HEK293 Galpha15/GCaMP6s without NPYLR7, calcium fluorescence
Cat: active
//
Compound: CCN(CC)CC[n+]1c(C)cc(C=C2Sc3ccccc3N2C)cc1C
Experimental System: HEK293 Galpha15/GCaMP6s without NPYLR7, calcium fluorescence
Cat: inactive

Prompt: Which outcome was assigned to `Cc1cccc(N2C(=O)NC(=O)/C(=C/c3cn(C)c4ccccc34)C2=O)c1` in this test?
Response: inactive

Prompt: I would be grateful if you could indicate the recorded call for `CCCCCN=C(N)NN=Cc1c[nH]c2ccc(OC)cc12` .
Response: inactive

Prompt: Fill in: this test's call for `COC(=O)C1CCN(S(=O)(=O)c2c(F)cc(F)cc2Br)CC1` is ___
Response: inactive

Prompt: For `C[C@@H](NC(=O)CN1Cc2ccc(N3CCOCC3)nc2C1=O)c1ccccc1` , what call appears in the results of this test?
Response: inactive

Prompt: Any idea what this test logged for N#CC1C(=N)SC(=N)C(C#N)C1c1ccc(Cl)cc1Cl (stereo unspecified) ?
Response: active

Prompt: What call does the record list for CNCC(O)c1ccc(O)c(O)c1 (stereo unspecified) ?
Response: active

Prompt: Which outcome was assigned to COc1cc(NC(=O)N2CC(=O)N3CCc4c(F)cccc4C3C2)cc(OC)c1OC (stereo unspecified) in this test?
Response: inactive

---

Experimental System: HEK293 Galpha15/GCaMP6s without NPYLR7, calcium fluorescence
Assay Summary: nonspecific activation in parental Galpha15/GCaMP6s cells – cell-based, HEK293 lacking NPYLR7, counter-screen for mosquito NPYLR7 agonist project, dose response (AID 1259426);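 further: potency for a rise in fluorescence over baseline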
Calls of active or inactive are those of the source.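 Rule for the calls: active = EC50 under a set limit in control cells lacking the mosquito receptor, marking a fluorescence artifact; inactive = the rest.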
Classes to choose from: t = active, f = inactive

Prompt: Give the logged outcome of this assay for the following compound: `N#CC(=Cc1c(F)c(F)c(F)c(F)c1F)c1ccccn1`
Response: f

Prompt: What did this assay record as the result for `Cc1cc(O)c(CN2CCN(CCO)CC2)c2c1C(=O)/C(=C/c1cc3ccccc3o1)O2` ?
Response: t

---

Experimental System: HEK293 Galpha15/GCaMP6s without NPYLR7, calcium fluorescence
Assay Summary: nonspecific activation in parental Galpha15/GCaMP6s cells – cell-based, HEK293 lacking NPYLR7, counter-screen for mosquito NPYLR7 agonist project, dose response (AID 1259426);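 further: potency for a rise in fluorescence over baseline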
The source made the active and inactive calls.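 The calls were made as follows: active = EC50 under a set limit in control cells lacking the mosquito receptor, marking a fluorescence artifact; inactive = the rest.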
Choose one outcome from this list and give only that: y for active, n for inactive

Compound: CCCc1nn2c(N)c(C=C3C=C(Cl)C(=O)C(Cl)=C3)c(=O)nc2s1
Experimental System: HEK293 Galpha15/GCaMP6s without NPYLR7, calcium fluorescence
Cat: n
--
Compound: COc1ccc2c(c1)OCC(C=C(C#N)S(=O)(=O)c1ccc(Br)cc1)=C2
Experimental System: HEK293 Galpha15/GCaMP6s without NPYLR7, calcium fluorescence
Cat: n
--
Compound: Cc1ccc(CN(Cc2ccc(F)cc2)C(=O)CNCCN2CCOCC2)s1
Experimental System: HEK293 Galpha15/GCaMP6s without NPYLR7, calcium fluorescence
Cat: n
--
Compound: COc1ccc(CCN2COc3ccc4c(c3C2)O/C(=C\c2ccncc2)C4=O)cc1OC
Experimental System: HEK293 Galpha15/GCaMP6s without NPYLR7, calcium fluorescence
Cat: y

Could you now look at the following compound, please?
Prompt: Could you kindly confirm the outcome this assay logged for CCOC(=O)N1CCC(NC(=O)c2sc3nc4c(c(C(F)(F)F)c3c2N)CC(C)CC4)CC1 (stereo not given) ?
Response: n

---

Experimental System: HEK293 Galpha15/GCaMP6s without NPYLR7, calcium fluorescence
Assay Summary: nonspecific activation in parental Galpha15/GCaMP6s cells – cell-based, HEK293 lacking NPYLR7, counter-screen for mosquito NPYLR7 agonist project, dose response (AID 1259426);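 further: potency for a rise in fluorescence over baseline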
Active and inactive are the calls of the source.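 How the source made its calls: active means EC50 under a set limit in control cells lacking the mosquito receptor, marking a fluorescence artifact; inactive means the rest.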
Output constraint: value belongs to TRUE (active), FALSE (inactive)

Molecule: O=C(c1snc2c(=O)n(Cc3ccccc3)c(=O)[nH]c12)N1CCSCC1
Cat: FALSE
//
Molecule: OC=c1ccc2cccc3nc(C(F)(F)F)nc1c23
Cat: TRUE
//
Molecule: COc1cc(OC)cc(C(=O)N2CCN(C(C(=O)Nc3ccc(NC(C)=O)cc3)C3CCCC3)CC2)c1 (stereo not given)
Cat: FALSE
//
Molecule: Cc1cc(C=C2Sc3ccccc3N2C)cc(C)[n+]1-c1ccccc1
Cat: TRUE

Prompt: Assay outcome for `COc1cc(C=C(C#N)S(=O)(=O)c2ccc(F)cc2)cc(Br)c1O` : what was it?
Response: FALSE

Prompt: Lab log entry: `CC(=O)Nc1sc2c(c1-c1nc3ccccc3s1)CCN(Cc1ccccc1)C2` — outcome as called in the assay?
Response: TRUE

Prompt: Given `CCn1c(O)c(C=Nc2c(C#N)c(C)c(C)n2C2CCCCC2)c(=O)n(CC)c1=S` , state the outcome it received in this test.
Response: TRUE

Prompt: // param item: `COc1cc(C=CC(=O)c2ccc3c(c2)OCCO3)cc(Br)c1O` ; yields the recorded call
Response: TRUE

Prompt: Query: recorded result category for `O[C@@H]1CN(Cc2ccncc2Cl)CC[C@H]1c1ccc2c(c1)OCO2` in this test
Response: FALSE

Prompt: So what was the verdict on `CCOc1cc(/C=C2/Oc3cc(O)ccc3C2=O)cc(Cl)c1OCC(=O)N(C)C` in this test?
Response: FALSE

---

Experimental System: HEK293 Galpha15/GCaMP6s without NPYLR7, calcium fluorescence
Assay Summary: nonspecific activation in parental Galpha15/GCaMP6s cells – cell-based, HEK293 lacking NPYLR7, counter-screen for mosquito NPYLR7 agonist project, dose response (AID 1259426);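 further: potency for a rise in fluorescence over baseline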
The source made the active and inactive calls.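 The calls were made as follows: active = EC50 under a set limit in control cells lacking the mosquito receptor, marking a fluorescence artifact; inactive = the rest.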
// classify into active, inactive

Compound: Cc1nc2ncccc2cc1C(=O)N1CCC2(CCNC(=O)CC2)CC1
Cat: inactive
//
Compound: CCOc1ccc(C(=O)Nc2sc3c(c2-c2nc4ccccc4s2)CCN(C)C3)cc1
Cat: inactive
//
Compound: N#Cc1c(N)nc2c(c1N)C(Sc1ccccc1)c1ccc(O)cc1O2 (stereo unspecified)
Cat: active
//
Compound: COc1ccc(-n2ccnc2-c2nc(-c3cccs3)oc2C)cn1
Cat: inactive
//
Compound: COc1ccc(N2CCN(c3cc(C(F)(F)F)nc(SCc4cccc(C(=O)NCc5ccccn5)c4)n3)CC2)cc1
Cat: inactive
//
Compound: CC(C)(C)NCC(O)c1ccc(O)c(CO)c1 (stereo unspecified)
Cat: inactive
//
Compound: CC1CCCCC1OCCNC(=O)C1(c2ccc(F)cc2)CCC1 (stereo unspecified)
Cat: inactive
//
Compound: O=C(CN1C(=O)SC(=Cc2ccc(N3CCCCCC3)o2)C1=O)N1CCCCCC1
Cat: inactive

Prompt: # lookup: test call for COc1ccc(NC(=O)C2C=CCN2)cc1NC(=O)c1ccco1 (stereo unspecified)
Response: inactive

Prompt: What did this assay record as the result for `Cc1csc(-c2cc3ccc(O)c(CN4CCN(CCO)CC4)c3oc2=O)n1` ?
Response: active

Prompt: Give the logged outcome of this assay for the following compound: `CCN(CC)CCNC(=O)c1c(C)[nH]c(/C=C2/C(=O)Nc3ccc(F)cc32)c1C`
Response: active

---

Experimental System: HEK293 Galpha15/GCaMP6s without NPYLR7, calcium fluorescence
Assay Summary: nonspecific activation in parental Galpha15/GCaMP6s cells – cell-based, HEK293 lacking NPYLR7, counter-screen for mosquito NPYLR7 agonist project, dose response (AID 1259426);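 further: potency for a rise in fluorescence over baseline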
Active and inactive are the calls of the source.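 How the source made its calls: active means EC50 under a set limit in control cells lacking the mosquito receptor, marking a fluorescence artifact; inactive means the rest.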
In this exercise, the only acceptable responses are t for active, f for inactive

The following compounds have reported results that may help.
Compound: COc1ccc(C(=O)C=Cc2cc(OC)c(O)c(OC)c2)cc1F
Cat: t

Compound: CCOC(=O)c1cc(O)c(C(=O)OCC)s1
Cat: f

Compound: COCCCNCc1c(-c2ccc(F)cc2)noc1N1CCOCC1
Cat: f

Compound: COc1ccc2c(C)nc(N=C(N)N)nc2c1
Cat: f

Compound: CC(=NNc1ncnc2sc(C)c(C)c12)c1ccccn1
Cat: f

Compound: CC(C)C(C(=O)O)N1C(=O)/C(=C/c2ccc(O)cc2)SC1=S (stereo unspecified)
Cat: t

Compound: COc1ccc(Cl)cc1Nc1nnc(-c2cc3c(ccc4ccccc43)oc2=O)s1
Cat: f

Compound: CCN1/C(=C/C2=CC(=O)CC(C)(C)C2)Sc2ccccc21
Cat: t

Prompt: // return assay outcome for `CCOC(=O)c1nc2ccccc2nc1N1CCN(C(=O)N2CCOCC2)CC1`
Response: f

Prompt: # lookup: test call for `CC(=O)Nc1nc(COC(=O)c2[nH]c(C)c(C(=O)OC(C)C)c2C)cs1`
Response: f

Prompt: Dear colleague, could you share the recorded outcome for `CC(C)CN1C(=O)C(=Cc2c(N3CCN(CCO)CC3)nc3ccccn3c2=O)SC1=S` when you have a moment?
Response: f
